- ASSAY TARGET: T1, human IFNAR-1 protein (form not stated) (human, UniProt P17181 28-436, limits assumed)
- T1 construct: bispecific ELISA
- T1 sequence (looked up): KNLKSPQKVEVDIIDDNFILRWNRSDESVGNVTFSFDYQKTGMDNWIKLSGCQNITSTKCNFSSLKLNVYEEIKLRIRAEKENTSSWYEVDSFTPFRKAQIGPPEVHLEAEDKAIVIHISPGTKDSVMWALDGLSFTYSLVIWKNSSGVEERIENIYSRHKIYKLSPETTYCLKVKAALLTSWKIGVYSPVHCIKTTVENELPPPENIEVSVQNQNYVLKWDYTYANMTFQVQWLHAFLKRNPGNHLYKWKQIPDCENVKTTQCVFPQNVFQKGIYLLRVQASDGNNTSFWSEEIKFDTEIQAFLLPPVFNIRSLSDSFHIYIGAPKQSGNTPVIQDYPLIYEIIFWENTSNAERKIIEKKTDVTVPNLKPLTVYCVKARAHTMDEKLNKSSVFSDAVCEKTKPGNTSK
- ASSAY INFO: affinity measurement of purified IgG at different concentrations (method not named)
VALUE KIND: kon (M⁻¹ s⁻¹)
Expressed in M⁻¹ s⁻¹, but write only the number.

Challenge: Name the recorded kon for 8G11-H2L2 (antibody, V domains shown, Humanized IgG expressed in HEK293; also called VH2 + VL2 (8G11)) VH: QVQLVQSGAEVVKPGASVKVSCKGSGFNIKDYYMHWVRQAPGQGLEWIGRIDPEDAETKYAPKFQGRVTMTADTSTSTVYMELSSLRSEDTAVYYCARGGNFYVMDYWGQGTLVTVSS VL: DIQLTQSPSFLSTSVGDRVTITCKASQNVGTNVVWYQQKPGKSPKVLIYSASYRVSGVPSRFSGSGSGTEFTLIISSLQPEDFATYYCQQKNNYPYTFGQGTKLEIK .
Response given: 298000
